Tested on: MCF7 breast
Assay Details: NCI tumour cell line growth inhibition, 48 h
Reported Endpoint: TGI (µM)

Cc1cc(Cc2cc(C)cc(C(C)(C)C)c2O)c(O)c(C(C)(C)C)c1 = 12.7
Cc1cc(C)c(O)c(CN(C)Cc2cc(Cl)cc(Cl)c2O)c1 = 14.3
O=C(N/N=C/c1ccc([N+](=O)[O-])cc1)c1ccc2nc(-c3ccc(Cl)cc3)[nH]c2c1 = 2.85
COc1cc(CC2c3cc(OC)c(OC)cc3CCN2C)c(Oc2cc3c(cc2OC)-c2c(O)c(OC)cc4c2C(C3)N(C)CC4)cc1OC (stereo not given) = 29.1

###

Test system: MDA-MB-435
Outcomes: True for active, False for inactive

NC1=NC(c2ccc(Cl)cc2)C2=C(N1)/C(=C/c1ccc(Cl)cc1)CCC2 (stereo not given) = False
O=c1cc(-c2ccccc2)[nH]n1-c1nc2ccccc2[nH]1 = False
C=C1C(=O)O[C@H]2[C@H]1CC/C(COC(=O)CSCC(=O)OC/C1=C/CC[C@@]3(C)O[C@H]3[C@H]3OC(=O)C(=C)[C@@H]3CC1)=C\CC[C@@]1(C)O[C@@H]21 = False
CCOC(=O)/C=C/C(C(=O)/C=C/c1ccc(O)c(OC)c1)=C(O)\C=C\c1ccc(O)c(OC)c1 = False
Cc1c2c[n+](C(C)C)ccc2c(C)c2c1[nH]c1ccccc12 = False
N#CC1=C(N)NC(=O)NC12Nc1ccccc1S2 (stereo not given) = False
c1ccc(-n2nnnc2-c2cccc3ccccc23)cc1 = True
O=c1[nH]cnc2[nH]ncc12 = False
CO[C@@H]1CC(=O)C2(CC(=O)O[C@@H]2/C=C(\C)CCC=C(C)C)C[C@@H]1O (stereo not given in full) = False
COc1ccc2nc3cc(Cl)ccc3c(NCCCNCCC(C)O)c2c1 (stereo not given) = False

###

Test system: RXF 393 renal
Assay Details: NCI tumour cell line growth inhibition, 48 h; in the data active = GI50 below about 0.43 µM; inactive = the rest
Outcome codes: yes = active, no = inactive

Cc1cc(C)c(O)c(CN(C)Cc2cc(Cl)cc(Cl)c2O)c1 = no
N#C[S-].[Nd+3].c1ccc(-c2ccccn2)nc1.c1ccc(-c2ccccn2)nc1.c1ccc(-c2ccccn2)nc1 = no
Cc1ccc(SC2=CC(=O)c3nc4ccccc4c4ccnc2c34)cc1 = no
COc1cc(/C=C2\CN(C)C/C(=C\c3cc(CN4CCCCC4)c(O)c(OC)c3)C2=O)cc(CN2CCCCC2)c1O = no
O=C(O)c1ccc(N/C=C2\C(=O)c3ccccc3OC2O)cc1O (centres undefined) = no
O=C(NC1CCN(Cc2ccccc2)CC1)c1cc2nc(-c3ccc(Cl)s3)cc(C(F)(F)F)n2n1 = no
COc1cccc2c1C(=O)c1c(O)c3c(c(O)c1C2=O)C[C@@](O)(C(=O)CO)C[C@@H]3OC1C[C@H](N)[C@H](O)[C@H](C)O1 (some centres undefined) = yes
Cc1cc(Cc2cc(C)cc(C(C)(C)C)c2O)c(O)c(C(C)(C)C)c1 = no
C=CCC1(O)c2cccc(NCCO)c2C(=O)c2c(NCCO)cccc21 = no
C=CCC(N[C@H](CO)c1ccccc1)c1cn(C(=O)OCC)c2ccccc12 (some centres undefined) = no
Cc1c(C)[n+](=O)c(C)c(C)n1[O-] = no
CC(=O)O/N=C1/C(c2c(O)[nH]c3cc(Br)ccc23)=Nc2ccccc21 = yes
COC(=O)[C@]12CC[C@@H](C)[C@H](C)[C@@H]1C1=CC[C@@H]3[C@@]4(C)C=C(O)C(=O)[C@@]5(C)COC(=C54)C[C@@]3(C)[C@]1(C)CC2 = no
COc1ccc2nc3cc(Cl)ccc3c(NCCCNCCC(C)O)c2c1 (centres undefined) = yes
O=C(c1ccco1)c1c(C(F)(F)F)n([O-])c2ccccc2[n+]1=O = no
COc1cc(-c2nc3sc4c(c3c(=O)[nH]2)CCCCCC4)cc(OC)c1OC = no
O=C(N/N=C/c1ccccc1O)C(=O)Nc1ccc(F)cc1 = no
C=CC(=O)N[C@H]1CCOC[C@H]1Nc1ncc2cc(-c3c(Cl)c(OC)cc(OC)c3Cl)ccc2n1 = no
CSc1ccc2c3c(n(C[C@H](O)CO)c(=O)c2c1)-c1ccccc1C3=O = no
